Taken from patent US20210317099A1.

system: Staphylococcus aureus NRS384 (MRSA USA300); test: Initial MIC screening, broth microdilution (CLSI); format: cell-based; settings: Staphylococcus aureus, Staphylococcus aureus NRS384 (MRSA USA300), broth microdilution, visual reading; read-out: MIC
Note to self: MIC under 20 µg/mL means MET, ties and anything higher get NOT MET.

Item C=C1C(=O)O[C@H](C2CCCCC2)[C@@H]1c1ccccc1 : MIC beneath 20 µg/mL, strictly?
NOT MET

Note, next up: C=C1C(=O)O[C@H](c2ccc(N)cc2)[C@@H]1c1ccccc1
NOT MET

Note, next up: C=C1C(=O)OC(C2CCCCC2)C1c1ccccc1 (stereo not drawn)
NOT MET

Note, next up: CCN(CC)CC1C(=O)O[C@H](c2ccccc2)[C@@H]1c1cccc2ccccc12 (stereo partly drawn)
MET

Note, next up: Cc1ccc([C@H]2OC(=O)C(CN(C)C)[C@H]2c2ccccc2)cc1 (stereo partly drawn)
NOT MET

Note, next up: O=C1O[C@H](c2ccccc2)[C@H](c2ccc3ccccc3c2)C1CN1CCCCC1 (stereo partly drawn)
MET

Note, next up: C=C1C(=O)O[C@H](c2cccc(OC)c2)[C@@H]1c1ccc(C(F)(F)F)cc1
MET

Note, next up: CCN(CC)CC1C(=O)O[C@H](c2ccc3ccccc3c2)[C@H]1c1ccccc1 (stereo partly drawn)
NOT MET

Note, next up: C=C1C(=O)O[C@H](c2ccc3ccccc3c2)[C@H]1c1ccccc1
MET

Note, next up: C=C1C(=O)O[C@H](/C=C/C)[C@@H]1c1ccc(Br)cc1
NOT MET

Note, next up: COc1ccc([C@H]2OC(=O)C(CN(C)C)[C@H]2c2ccc(C#N)cc2)cc1 (stereo partly drawn)
NOT MET

Note, next up: O=C1OC[C@H](c2ccco2)C1CN1CCCCC1 (stereo partly drawn)
NOT MET

Note, next up: C=C1C(=O)O[C@H](c2ccccc2OC)[C@@H]1c1cccc(C#N)c1
MET

Note, next up: C[C@@]1(c2ccccc2)CC(CN2CCCCC2)C(=O)O1 (stereo partly drawn)
NOT MET

Note, next up: CCC[C@H]1COC(=O)C1CN1CCCCC1 (stereo partly drawn)
NOT MET

Note, next up: C=C1C(=O)O[C@H](c2ccnc3ccccc23)[C@@H]1c1ccc2ccccc2c1
MET

Note, next up: COc1ccc([C@@H]2C(CN(C)C)C(=O)O[C@@H]2c2ccc(C)cc2)cc1 (stereo partly drawn)
NOT MET
